Source of measurements: patent US7482345B2

Form: system (UniProt:P47811), quantity (pIC50), values below.
Sequence (P47811 whole entry): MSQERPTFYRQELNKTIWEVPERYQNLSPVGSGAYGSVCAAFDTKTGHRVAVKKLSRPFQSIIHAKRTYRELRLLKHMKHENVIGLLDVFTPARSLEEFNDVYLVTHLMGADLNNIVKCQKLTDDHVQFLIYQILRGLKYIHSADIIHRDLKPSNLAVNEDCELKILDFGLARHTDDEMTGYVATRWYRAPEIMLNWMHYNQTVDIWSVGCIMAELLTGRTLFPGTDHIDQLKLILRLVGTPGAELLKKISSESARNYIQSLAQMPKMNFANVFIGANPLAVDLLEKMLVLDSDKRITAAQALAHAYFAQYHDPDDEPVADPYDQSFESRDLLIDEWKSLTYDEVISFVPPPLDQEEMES
One number for each entry, as −log10 of the molar value.

Known pIC50 results, listed for orientation:
CCc1ccc(C(=O)N2CCCC2)cc1-c1c(=O)ccn2nc(Oc3ccc(F)cc3F)ccc12 = 7.23
COc1ccc(C(=O)N2CCCC2)cc1-c1c(=O)ccn2nc(Oc3ccc(F)cc3F)ccc12 = 7.66
O=c1ccn2nc(NCc3ccc(F)cc3F)ccc2c1-c1c(F)cccc1F = 6.15

Next, consider the following compound.
UniProt:P47811 / pIC50 / O=c1ccn2cc(Sc3ccc(F)cc3F)ccc2c1-c1c(F)cccc1F : value?
6.49
